# maps each entry to its Ki
- system: human 5-HT6 receptor (Homo sapiens (Human), UniProt P50406)
- Sequence (P50406 whole entry): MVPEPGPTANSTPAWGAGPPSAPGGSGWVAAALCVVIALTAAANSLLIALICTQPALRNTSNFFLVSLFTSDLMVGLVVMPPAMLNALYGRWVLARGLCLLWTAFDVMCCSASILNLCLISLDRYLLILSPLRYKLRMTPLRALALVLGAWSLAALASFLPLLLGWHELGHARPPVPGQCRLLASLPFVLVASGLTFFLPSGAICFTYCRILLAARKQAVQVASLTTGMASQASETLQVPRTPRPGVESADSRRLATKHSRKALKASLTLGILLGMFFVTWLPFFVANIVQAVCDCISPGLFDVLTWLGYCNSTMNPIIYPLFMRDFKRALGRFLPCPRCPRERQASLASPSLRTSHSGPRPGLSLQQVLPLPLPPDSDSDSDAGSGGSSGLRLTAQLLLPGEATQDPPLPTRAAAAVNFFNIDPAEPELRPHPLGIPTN
- measurement notes: radioligand binding assay (SPA format), [N-methyl-3H]-LSD
- conditions: read-out: human 5HT6 Ki; human 5-HT6 receptor membranes, 10 nM [3H]-LSD
API: value field is a number in nM; no unit string.

1. COc1cc(S(=O)(=O)n2cc(C#N)c3ccccc32)cc2c3c(n(C)c12)CC1CCC3N1 (stereo not shown) [Example 149] : 1.2
2. COc1cc(S(=O)(=O)c2cccc(OC(F)F)c2)cc2c3c(n(C)c12)CC1CCC3N1 (stereo not shown) [Example 214] : 3
3. Cn1c2c(c3cc(S(=O)(=O)n4ccc5ccc(C#N)cc54)ccc31)C1CCC(C2)N1 (stereo not shown) [Example 127] : 1.5
4. Cn1c2c(c3cc(S(=O)(=O)c4ccc5[nH]ccc5c4)ccc31)C1CCC(C2)N1CCO (stereo not shown) [Example 138] : 1.2
5. Cl.Cn1c2c(c3cc(S(=O)(=O)n4cc(Cl)c5ccccc54)ccc31)C1CCC(C2)N1 (stereo not shown) [Example 67, hydrochloride] : 4.1

*Q* # Ki lookup, item Cn1c2c(c3cc(S(=O)(=O)c4ccc5[nH]ccc5c4)ccc31)C1CCC(C2)N1Cc1ccccc1 (stereo not shown) [Example 137]
*A* 1.2

*Q* # lookup: Ki of Cn1c2c(c3cc(S(=O)(=O)n4ccc5cc(Cl)ccc54)ccc31)C1CCC(C2)N1 (stereo not shown) [Example 196]
*A* 1.2

*Q* # Ki lookup, item Cl.Cn1c2c(c3cc(S(=O)(=O)c4ccccn4)ccc31)C1CCC(C2)N1 (stereo not shown) [Example 60, hydrochloride]
*A* 193

*Q* Any idea what its Ki is? The molecule is Cn1c2c(c3cc(S(=O)(=O)c4ccc5sccc5c4)ccc31)C1CCC(C2)N1 (stereo not shown) [Example 104]
*A* 5

*Q* Please report the recorded Ki for COc1cc(S(=O)(=O)c2cncc3ccccc23)cc2c3c(n(C)c12)CC1CCC3N1 (stereo not shown) [Example 233] .
*A* 3.7

* * *

- system: human 5-HT6 receptor (Homo sapiens (Human), UniProt P50406)
- measurement notes: radioligand binding assay (SPA format), [N-methyl-3H]-LSD
- conditions: read-out: human 5HT6 Ki; human 5-HT6 receptor membranes, 10 nM [3H]-LSD
Each record here notes measured Ki.
Give the quantity in nM, number only.

1. CCN1C2CCC1c1c(n(C)c3ccc(S(=O)(=O)c4ccc5[nH]ccc5c4)cc13)C2 (stereo not shown) [Example 185] : 1.5
2. COc1cc(S(=O)(=O)c2cccc(F)c2)cc2c3c(n(C)c12)CC1CCC3N1 (stereo not shown) [Example 221] : 3.3
3. Cc1cc(S(=O)(=O)c2cccc(OC(F)(F)F)c2)cc2c3c(n(C)c12)CC1CCC3N1.Cl (stereo not shown) [Example 76, hydrochloride] : 6.9
4. Cn1c2c(c3cc(S(=O)(=O)c4cc(Cl)ccn4)ccc31)C1CCC(C2)N1 (stereo not shown) : 104
5. Cn1c2c(c3cc(S(=O)(=O)c4cccc(-n5cccn5)c4)ccc31)C1CCC(C2)N1 (stereo not shown) [Example 245] : 9
6. Cc1ccccc1S(=O)(=O)c1ccc2c(c1)c1c(n2C)CC2CCC1N2.Cl (stereo not shown) [Example 52, hydrochloride] : 11

*Q* State its Ki on human 5-HT6 receptor (Homo sapiens (Human), UniProt P50406): Cl.Cn1c2c(c3cc(S(=O)(=O)c4cccc(OC(F)F)c4)ccc31)C1CCC(C2)N1 (stereo not shown) [Example 40, hydrochloride]
*A* 5.8
